Consider the following Ki data for Beta-secretase 1 (Homo sapiens, UniProt P56817), collected from several reports.
Give the value, in units of nM, as a plain number.

Answered cases to consult:
compound=C[C@]1(F)C[C@]2(F)COC[C@]2(c2cc(NC(=O)c3cnc(C(F)F)cn3)ccc2F)N=C1N measured=48
compound=CN1C(=N)N[C@](C)(c2sc(-c3cccc(-c4nnco4)c3F)cc2Cl)CS1(=O)=O measured=60.7

**Q:** Which Ki reading was recorded for the compound `CN1C(=N)N[C@](C)(c2sc(-c3nnc(-c4cscn4)o3)cc2Cl)CS1(=O)=O` ?
**A:** 662

**Q:** Which Ki reading was recorded for the compound `Cc1csc(C(=O)Nc2ccc(F)c([C@@]3(C)N=C(N)[C@](C)(F)C[C@@H]3F)c2)n1` ?
**A:** 99

**Q:** Which Ki reading was recorded for the compound CCc1nc(N2CC3C(c4ccccc4)(C2)NC(=N)N(C)S3(=O)=O)nc(OC)c1F (racemic) ?
**A:** 82

**Q:** Which Ki reading was recorded for the compound `COc1cnc(C(=O)Nc2ccc(F)c([C@@]3(C)NC(=N)N(C)S(=O)(=O)C34CC4)c2)cn1` ?
**A:** 20

**Q:** Which Ki reading was recorded for the compound `C[C@]1(F)CC(F)(F)[C@@](C)(c2cc(NC(=O)c3ccc(C#N)cn3)ccc2F)N=C1N` ?
**A:** 11

* * *

Consider the following Ki data for Beta-secretase 1 (Homo sapiens, UniProt P56817), collected from several reports.
Give the value, in units of nM, as a plain number.

Answered cases to consult:
substance_smiles=CN1C(=N)N[C@](C)(c2sc(-c3cccc(-c4nnco4)c3)cc2F)CS1(=O)=O measured=1.7
substance_smiles=CN1C(=N)N[C@](C)(c2sc(-c3nnc(-c4ccc(Cl)cc4F)o3)cc2Cl)CS1(=O)=O measured=50.7
substance_smiles=C[C@@]1(c2cc(NC(=O)c3cn4ccsc4n3)ccc2F)CS(=O)(=O)C2(CCCC2)C(=N)N1 measured=82

**Q:** Which Ki reading was recorded for the compound `COc1cnc(C(=O)Nc2ccc(F)c([C@@]3(C)N=C(N)[C@@](C)(F)CC3(F)F)c2)c(C)n1` ?
**A:** 32

* * *

Consider the following pKi data for UniProt:P56817, collected from several reports.
Just the number, please; pKi means minus log10 of the concentration in mol/L.

substance_smiles=COc1cccc2cc(-c3csc([C@]4(C)Cc5nc(C(F)(F)F)ncc5C(=N)N4)c3)[nH]c12 target_system=UniProt:P56817 measured=7.54
substance_smiles=CN1C(=N)N[C@](C)(c2sc(-c3cccc(-c4nc(C5CC5)no4)c3)cc2F)CS1(=O)=O target_system=UniProt:P56817 measured=6.21
substance_smiles=CN1C[C@@](C)(c2cc(NC(=O)c3cn(C)nc3C(F)(F)F)ccc2F)NC(=N)C(C)(C)S1(=O)=O target_system=UniProt:P56817 measured=5.06

**Q:** Which pKi reading was recorded for the compound `CC1(C)C(=N)N[C@@]2(CCOc3ccc(NC(=O)c4ccn(C(F)F)n4)cc32)CS1(=O)=O` ?
**A:** 8.52

**Q:** Which pKi reading was recorded for the compound `C[C@@]1(c2cc(-c3cncc(C#N)c3)cs2)Cc2nc(C(F)(F)F)ncc2C(=N)N1` ?
**A:** 6.68
